- System: NCI-H596
- procedure_text: relative viability (nuclei count vs DMSO), 5 days (fraction); higher = more cells survive
- condition_set: first compound 0.08 µM
Please provide measured relative viability for the entries that follow.
Would you mind answering with just the numeric figure?

What value of measured relative viability is listed for O=c1cc(-c2cccc3c2Sc2ccccc2S3)oc(N2CCOCC2)c1 + Nc1nc2[nH]cc(CCc3ccc(C(=O)N[C@@H](CCC(=O)O)C(=O)O)cc3)c2c(=O)[nH]1 [Pemetrexed] (partner 0.2 µM) ?
0.422

Also, COc1nc(C)cnc1NS(=O)(=O)c1cccnc1-c1ccc(-c2nnco2)cc1 [Zibotentan] + Cc1cc(Nc2cc(N3CCN(C)CC3)nc(Sc3ccc(NC(=O)C4CC4)cc3)n2)n[nH]1 [Tozasertib] (partner 0.1 µM) please.
0.883

For O=c1cc(-c2cccc3c2Sc2ccccc2S3)oc(N2CCOCC2)c1 + C[C@@H](Oc1cc(-c2cnn(C3CCNCC3)c2)cnc1N)c1c(Cl)ccc(F)c1Cl [Crizotinib] (partner 1 µM) then?
0.96

Item: COc1nc(C)cnc1NS(=O)(=O)c1cccnc1-c1ccc(-c2nnco2)cc1 [Zibotentan] + C[C@]1(O)C[C@@H](c2nc(-c3ccc4ccc(-c5ccccc5)nc4c3)c3c(N)nccn32)C1 [Linsitinib] (partner 1 µM)
1.23

// same read-out, input: O=c1cc(-c2cccc3c2Sc2ccccc2S3)oc(N2CCOCC2)c1 + CS(=O)(=O)N1CCN(Cc2cc3nc(-c4cccc5[nH]ncc45)nc(N4CCOCC4)c3s2)CC1 [Pictilisib] (partner 1 µM)
0.34

###

Give relative viability for every item shown.
- Test system: HCC-827
- procedure_text: relative viability (nuclei count vs DMSO), 5 days (fraction); higher = more cells survive
- condition_set: first compound 0.1 µM
Returns: the value as a bare number; no unit string appended.

Fill in: relative viability of CCN(CC)CCCCNc1ncc2cc(-c3cc(OC)cc(OC)c3)c(NC(=O)NC(C)(C)C)nc2n1 + NC(=O)Nc1cc(-c2cccc(F)c2)sc1C(=O)N[C@H]1CCCNC1 [AZD7762] (partner 0.2 µM) is ___
0.217

Also O=c1cc(N2CCOCC2)oc2c(-c3cccc4c3sc3ccccc34)cccc12 + COc1cccc2cc(-c3nc([C@H]4CC[C@H](C(=O)O)CC4)n4ncnc(N)c34)[nH]c12 [OSI-027] (partner 0.5 µM) ?
0.744

Please do the same for CCN(CC)CCCCNc1ncc2cc(-c3cc(OC)cc(OC)c3)c(NC(=O)NC(C)(C)C)nc2n1 + N=C(N)NC(=N)NCCc1ccccc1 [Phenformin] (partner 250 µM) as well.
0.417

Try the compound CCN(CC)CCCCNc1ncc2cc(-c3cc(OC)cc(OC)c3)c(NC(=O)NC(C)(C)C)nc2n1 + O=C(c1cc(Cc2n[nH]c(=O)c3ccccc23)ccc1F)N1CCN(C(=O)C2CC2)CC1 [Olaparib] (partner 8 µM)
0.702

Lookup O=c1cc(N2CCOCC2)oc2c(-c3cccc4c3sc3ccccc34)cccc12 + NC(=O)Nc1cc(-c2cccc(F)c2)sc1C(=O)N[C@H]1CCCNC1 [AZD7762] (partner 0.2 µM)
0.133

# repeat for O=c1cc(N2CCOCC2)oc2c(-c3cccc4c3sc3ccccc34)cccc12 + O=C(c1cc(Cc2n[nH]c(=O)c3ccccc23)ccc1F)N1CCN(C(=O)C2CC2)CC1 [Olaparib] (partner 8 µM)
0.623

// repeat for O=c1cc(N2CCOCC2)oc2c(-c3cccc4c3sc3ccccc34)cccc12 + CC(=O)Nc1cccc(-n2c(=O)n(C3CC3)c(=O)c3c(Nc4ccc(I)cc4F)n(C)c(=O)c(C)c32)c1 [Trametinib] (partner 0.02 µM) and report
0.547

CCN(CC)CCCCNc1ncc2cc(-c3cc(OC)cc(OC)c3)c(NC(=O)NC(C)(C)C)nc2n1 + COc1cc2c(Oc3ccc(NC(=O)C4(C(=O)Nc5ccc(F)cc5)CC4)cc3F)ccnc2cc1OCCCN1CCOCC1 [Foretinib] (partner 0.25 µM) ?
1.19

###

Exercise: state measured relative viability for each of the compounds provided.
- Tested on: HOP-62
- procedure_text: relative viability (nuclei count vs DMSO), 5 days (fraction); higher = more cells survive
- condition_set: first compound 0.2 µM

Give the measured relative viability of COCC1(CO)C(=O)C2CCN1CC2 (stereo not drawn) [PRIMA-1MET] + N=C(N)NC(=N)NCCc1ccccc1 [Phenformin] (partner 250 µM) .
0.668

Subsequent entry: COCC1(CO)C(=O)C2CCN1CC2 (stereo not drawn) [PRIMA-1MET] + Cc1cc(Nc2cc(N3CCN(C)CC3)nc(Sc3ccc(NC(=O)C4CC4)cc3)n2)n[nH]1 [Tozasertib] (partner 0.1 µM)
0.426

What about COCC1(CO)C(=O)C2CCN1CC2 (stereo not drawn) [PRIMA-1MET] + Cc1nc(NC(=O)N2CCC[C@H]2C(N)=O)sc1-c1ccnc(C(C)(C)C(F)(F)F)c1 [Alpelisib] (partner 2 µM) ?
1.13

###

What relative viability was measured for each of the following?
- Tested on: H3255
- procedure_text: relative viability (nuclei count vs DMSO), 5 days (fraction); higher = more cells survive
- condition_set: first compound 0.1 µM
Form rule: numeric answer, no unit written next to it.

Tell me reported relative viability for O=c1cc(N2CCOCC2)oc2c(-c3cccc4c3sc3ccccc34)cccc12 + O=C(CCCCCCC(=O)Nc1ccccc1)NO [Vorinostat] (partner 1 µM) , tested with H3255.
0.759

Likewise for CCN(CC)CCCCNc1ncc2cc(-c3cc(OC)cc(OC)c3)c(NC(=O)NC(C)(C)C)nc2n1 + N=C(N)NC(=N)NCCc1ccccc1 [Phenformin] (partner 250 µM) ?
0.27

Check O=c1cc(N2CCOCC2)oc2c(-c3cccc4c3sc3ccccc34)cccc12 + O=C(c1cc(Cc2n[nH]c(=O)c3ccccc23)ccc1F)N1CCN(C(=O)C2CC2)CC1 [Olaparib] (partner 8 µM) too.
0.567

Param item: O=c1cc(N2CCOCC2)oc2c(-c3cccc4c3sc3ccccc34)cccc12 + CC(=O)c1c(C)c2cnc(Nc3ccc(N4CCNCC4)cn3)nc2n(C2CCCC2)c1=O [Palbociclib] (partner 0.5 µM)
0.306

Likewise for O=c1cc(N2CCOCC2)oc2c(-c3cccc4c3sc3ccccc34)cccc12 + Cc1nc(NC(=O)N2CCC[C@H]2C(N)=O)sc1-c1ccnc(C(C)(C)C(F)(F)F)c1 [Alpelisib] (partner 2 µM) ?
0.784

Another compound to check: CCN(CC)CCCCNc1ncc2cc(-c3cc(OC)cc(OC)c3)c(NC(=O)NC(C)(C)C)nc2n1 + COc1cccc2cc(-c3nc([C@H]4CC[C@H](C(=O)O)CC4)n4ncnc(N)c34)[nH]c12 [OSI-027] (partner 0.5 µM)
0.698

Similarly, O=c1cc(N2CCOCC2)oc2c(-c3cccc4c3sc3ccccc34)cccc12 + COc1cccc2cc(-c3nc([C@H]4CC[C@H](C(=O)O)CC4)n4ncnc(N)c34)[nH]c12 [OSI-027] (partner 0.5 µM) ?
0.584

###

- Test system: NCI-H520
- procedure_text: relative viability (nuclei count vs DMSO), 5 days (fraction); higher = more cells survive
- condition_set: first compound 0.08 µM
Record form. Attribute: relative viability. Fill in for each entry.
Respond with the number and no other words.

What value of measured relative viability is listed for O=c1cc(-c2cccc3c2Sc2ccccc2S3)oc(N2CCOCC2)c1 + CC1(C)CCC(c2ccc(Cl)cc2)=C(CN2CCN(c3ccc(C(=O)NS(=O)(=O)c4ccc(N[C@H](CCN5CCOCC5)CSc5ccccc5)c(S(=O)(=O)C(F)(F)F)c4)cc3)CC2)C1 [Navitoclax] (partner 0.5 µM) ?
0.992

Follow-up entry: O=c1cc(-c2cccc3c2Sc2ccccc2S3)oc(N2CCOCC2)c1 + CC(=O)Nc1cccc(-n2c(=O)n(C3CC3)c(=O)c3c(Nc4ccc(I)cc4F)n(C)c(=O)c(C)c32)c1 [Trametinib] (partner 0.02 µM)
0.566

Repeat with O=c1cc(-c2cccc3c2Sc2ccccc2S3)oc(N2CCOCC2)c1 + Cc1cc(Nc2cc(N3CCN(C)CC3)nc(Sc3ccc(NC(=O)C4CC4)cc3)n2)n[nH]1 [Tozasertib] (partner 0.1 µM)
0.383

Next molecule up: O=c1cc(-c2cccc3c2Sc2ccccc2S3)oc(N2CCOCC2)c1 + CC(C)C[C@H](NC(=O)[C@H](Cc1ccccc1)NC(=O)c1cnccn1)B(O)O [Bortezomib] (partner 0.002 µM)
0.679

###

- System: NCI-H2405
- procedure_text: relative viability (nuclei count vs DMSO), 5 days (fraction); higher = more cells survive
- condition_set: first compound 1 µM
measured_parameter: relative viability

Give relative viability (NCI-H2405) of the following compound: O=c1cc(N2CCOCC2)oc2c(-c3cccc4c3sc3ccccc34)cccc12 + CS(=O)(=O)N1CCN(Cc2cc3nc(-c4cccc5[nH]ncc45)nc(N4CCOCC4)c3s2)CC1 [Pictilisib] (partner 1 µM)
0.443

Now consider O=c1cc(N2CCOCC2)oc2c(-c3cccc4c3sc3ccccc34)cccc12 + CC(=O)c1c(C)c2cnc(Nc3ccc(N4CCNCC4)cn3)nc2n(C2CCCC2)c1=O [Palbociclib] (partner 0.5 µM) and answer again.
0.527

Also CCN(CC)CCCCNc1ncc2cc(-c3cc(OC)cc(OC)c3)c(NC(=O)NC(C)(C)C)nc2n1 + CCNC(=O)c1noc(-c2cc(C(C)C)c(O)cc2O)c1-c1ccc(CN2CCOCC2)cc1 [Luminespib] (partner 0.01 µM) ?
0.684

Try the compound CCN(CC)CCCCNc1ncc2cc(-c3cc(OC)cc(OC)c3)c(NC(=O)NC(C)(C)C)nc2n1 + N=C(N)NC(=N)NCCc1ccccc1 [Phenformin] (partner 250 µM)
0.315

Cool, now O=c1cc(N2CCOCC2)oc2c(-c3cccc4c3sc3ccccc34)cccc12 + Cc1nc(NC(=O)N2CCC[C@H]2C(N)=O)sc1-c1ccnc(C(C)(C)C(F)(F)F)c1 [Alpelisib] (partner 2 µM)
0.827

Try the compound CCN(CC)CCCCNc1ncc2cc(-c3cc(OC)cc(OC)c3)c(NC(=O)NC(C)(C)C)nc2n1 + CC(C)C[C@H](NC(=O)[C@H](Cc1ccccc1)NC(=O)c1cnccn1)B(O)O [Bortezomib] (partner 0.002 µM)
0.982
